# Test system: U-87MG ATCC
# test-method-notes: Inhibition of cell proliferation of human U87MG cells assessed as cell viability after 72 hrs by sulforhodamine B assay
# Assay type: functional, cell-based
The source made the active and inactive calls. No cut-off for these calls is given here.

- compound: "CC1(C)CC[C@]2(C(=O)O)[C@H](O)C[C@]3(C)C(=CC[C@@H]4[C@@]5(C)CC[C@H](O[C@@H]6O[C@H](CO[C@@H]7OC[C@H](O)[C@H](O)[C@H]7O[C@@H]7OC[C@@H](O)[C@H](O)[C@H]7O)[C@@H](O)[C@H](O)[C@H]6O)C(C)(C)[C@@H]5CC[C@]43C)[C@@H]2C1"
  inhibition: "inactive"
- compound: "CC1(C)CC[C@]2(C(=O)O)CC[C@]3(C)C(=CC[C@@H]4[C@@]5(C)CC[C@H](O[C@@H]6O[C@H](CO[C@@H]7OC[C@H](O)[C@H](O)[C@H]7O[C@@H]7OC[C@@H](O)[C@H](O)[C@H]7O)[C@@H](O)[C@H](O)[C@H]6O)C(C)(C)[C@@H]5CC[C@]43C)[C@@H]2C1 [PITHEDULOSIDE C]"
  inhibition: "inactive"
- compound: "C[C@@H]1O[C@@H](OC[C@H]2O[C@@H](OC(=O)[C@]34CCC(C)(C)C[C@H]3C3=CC[C@@H]5[C@@]6(C)CC[C@H](O[C@@H]7O[C@H](CO[C@@H]8OC[C@H](O)[C@H](O)[C@H]8O)[C@@H](O)[C@H](O)[C@H]7O)C(C)(C)[C@@H]6CC[C@@]5(C)[C@]3(C)C[C@H]4O)[C@H](O[C@@H]3O[C@@H](C)[C@H](O[C@@H]4OC[C@@H](O)[C@H](O[C@@H]5OC[C@@H](O)[C@H](O)[C@H]5O)[C@H]4O)[C@@H](O)[C@H]3O)[C@@H](O)[C@@H]2O)[C@H](O)[C@H](O)[C@H]1O"
  inhibition: "inactive"

Source: ChEMBL document CHEMBL3351906
